- assay-text: Rat PK study of the compound of Example 1
- Type: in vivo
- experimental-parameters: plasma, IV 1 mg/kg
value-kind: bioavailability (%)
Numeric only. Scale: %

Request the reported bioavailability associated with CN1C(=O)CN2c3c(cccc31)[C@@H]1CN(CCCOc3ccc(F)cc3)CC[C@@H]12 [Compound 1]
100

---

- assay-text: Rat PK study of the compound of Example 1
- Format: in vivo
- experimental-parameters: plasma, PO 1 mg/kg
value-kind: AUC (ng·h/mL)
Give the value in ng·h/mL but do not write ng·h/mL after it.

Report AUC for CN1C(=O)CN2c3c(cccc31)[C@@H]1CN(CCCOc3ccc(F)cc3)CC[C@@H]12 please.
22.6

---

- assay-text: Rat PK study of the compound of Example 1
- Assay type: in vivo
- experimental-parameters: plasma, SC 1 mg/kg
value-kind: AUC (ng·h/mL)
Supply the numeric figure in ng·h/mL, leaving out any unit text.

I am curious: what AUC value has been reported for CN1C(=O)CN2c3c(cccc31)[C@@H]1CN(CCCOc3ccc(F)cc3)CC[C@@H]12 [Compound 1] ?
247

---

- assay-text: Rat PK study of the compound of Example 2
- Assay type: in vivo
- experimental-parameters: plasma, PO 10 mg/kg
value-kind: AUC (ng·h/mL)
Express your answer in ng·h/mL, writing the number without its unit.

Recorded AUC of CN1CCN2c3c(cccc31)[C@@H]1CN(CCCC(=O)c3ccc(F)cc3)CC[C@@H]12 [Formula B] , please.
56

---

- assay-text: Rat PK study of the compound of Example 1
- Format: in vivo
- experimental-parameters: plasma, SC 1 mg/kg
value-kind: concentration at 1 h (ng/mL)
Respond numerically; units are ng/mL and should not be typed.

Can you share its concentration at 1 h? I mean this compound: CN1C(=O)CN2c3c(cccc31)[C@@H]1CN(CCCOc3ccc(F)cc3)CC[C@@H]12
28.1

---

- assay-text: Rat PK study of the compound of Example 2
- Format: in vivo
- experimental-parameters: plasma, SC 45 mg/kg
value-kind: concentration at 6 h (ng/mL)
Express your answer in ng/mL, writing the number without its unit.

Returns the measured concentration at 6 h for the input compound. Input: CN1CCN2c3c(cccc31)[C@@H]1CN(CCCC(=O)c3ccc(F)cc3)CC[C@@H]12 [Formula B]
498

---

- assay-text: Rat PK study of the compound of Example 2
- Format: in vivo
- experimental-parameters: plasma, SC 45 mg/kg
value-kind: Cmax (ng/mL)
Provide the reading as a plain figure in ng/mL.

Give its Cmax value. Item: CN1CCN2c3c(cccc31)[C@@H]1CN(CCCC(=O)c3ccc(F)cc3)CC[C@@H]12
747

---

- assay-text: Rat PK study of the compound of Example 2
- Type: in vivo
- experimental-parameters: plasma, SC 45 mg/kg
value-kind: bioavailability (%)
Answer in %, number only, no unit symbol.

Which bioavailability reading was recorded for the molecule CN1CCN2c3c(cccc31)[C@@H]1CN(CCCC(=O)c3ccc(F)cc3)CC[C@@H]12 ?
73

---

- assay-text: Rat PK study of the compound of Example 1
- Format: in vivo
- experimental-parameters: plasma, IV 1 mg/kg
value-kind: AUC (ng·h/mL)
Just the number in ng·h/mL, nothing appended.

Item CN1C(=O)CN2c3c(cccc31)[C@@H]1CN(CCCOc3ccc(F)cc3)CC[C@@H]12 [Compound 1] has what recorded AUC?
270

---

- assay-text: Rat PK study of the compound of Example 2
- Format: in vivo
- experimental-parameters: plasma, SC 45 mg/kg
value-kind: concentration at 12 h (ng/mL)
Number only, in ng/mL; omit the unit.

Can you share its concentration at 12 h? I mean this molecule: CN1CCN2c3c(cccc31)[C@@H]1CN(CCCC(=O)c3ccc(F)cc3)CC[C@@H]12
168

---

- measured-target: UniProtKB P35372
- Sequence (P35372 whole entry): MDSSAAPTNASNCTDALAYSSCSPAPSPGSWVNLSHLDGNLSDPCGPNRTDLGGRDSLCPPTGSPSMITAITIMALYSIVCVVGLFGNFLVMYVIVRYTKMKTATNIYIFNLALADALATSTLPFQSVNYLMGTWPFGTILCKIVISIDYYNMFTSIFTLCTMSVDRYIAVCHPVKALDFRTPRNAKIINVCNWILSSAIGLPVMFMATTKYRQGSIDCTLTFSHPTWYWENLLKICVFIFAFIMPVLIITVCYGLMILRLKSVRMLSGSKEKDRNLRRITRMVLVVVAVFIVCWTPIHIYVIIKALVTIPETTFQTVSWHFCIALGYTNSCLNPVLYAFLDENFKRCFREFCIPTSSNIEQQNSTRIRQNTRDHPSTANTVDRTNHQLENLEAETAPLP
- assay-text: Receptor binding, Mu opiate receptor
- experimental-parameters: Mu opiate receptor; read-out: Ki (nM) or maximum inhibition
value-kind: Ki

What value of Ki has been recorded for this entry: CN1CCN2c3c(cccc31)[C@@H]1CN(CCCC(=O)c3ccc(F)cc3)CC[C@@H]12 [Formula B]
> 10000 nM

---

- assay-text: Rat PK study of the compound of Example 2
- Format: in vivo
- experimental-parameters: plasma, PO 10 mg/kg
- Protocol: Surgically modified rats are housed one per cage, and supplied with water and a commercial rodent diet ad libitum prior to study initiation. […] Drug levels in the plasma samples are quantified via HPLC with MS/MS detection. Pharmacokinetic parameters based on the group geomean concentration versus time data, are calculated using a noncompartmental pharmaceutical data analysis software PK Solutions 2.0 (Summit Research Services, Montrose, Colo.). […]
value-kind: concentration at 30 min (ng/mL)
Give the value, in units of ng/mL, as a plain number.

What value of concentration at 30 min has been reported for the following molecule? CN1CCN2c3c(cccc31)[C@@H]1CN(CCCC(=O)c3ccc(F)cc3)CC[C@@H]12 [Formula B]
12.2

---

- assay-text: Rat PK study of the compound of Example 2
- Type: in vivo
- experimental-parameters: plasma, IV 1 mg/kg
value-kind: concentration at 6 h
Write the figure, then the unit, nothing else.

# input compound: CN1CCN2c3c(cccc31)[C@@H]1CN(CCCC(=O)c3ccc(F)cc3)CC[C@@H]12 [Formula B] ; wanted: its concentration at 6 h
3.1 ng/mL

---

- assay-text: Rat PK study of the compound of Example 2
- Assay type: in vivo
- experimental-parameters: plasma, PO 10 mg/kg
value-kind: Cmax
Please report the result as a number followed by the unit.

Quick one: Cmax for CN1CCN2c3c(cccc31)[C@@H]1CN(CCCC(=O)c3ccc(F)cc3)CC[C@@H]12 ?
13.8 ng/mL

---

- assay-text: Rat PK study of the compound of Example 1
- Type: in vivo
- experimental-parameters: plasma, PO 1 mg/kg
value-kind: Cmax (ng/mL)
Answer with a number only, understood to be in ng/mL.

Which measured Cmax value corresponds to CN1C(=O)CN2c3c(cccc31)[C@@H]1CN(CCCOc3ccc(F)cc3)CC[C@@H]12 ?
5
